Measured composite z-score, listed per entry for reference.
# Tested on: Human papillomavirus type 1a E7 protein (residues 1-88)
# Test protocol: HPV1a E7 small-molecule binders, primary screen, biochemical, small-molecule microarray, residues 1-88, 635 nm (AID 1129)
# Run parameters: small-molecule microarray binding, fluorescence 635 nm; higher = more signal

Compound	Target system	composite z-score
CCOC(=O)C[C@H]1[C@H](OC(=O)c2cc3ccccc3oc2=O)[C@@H](NC(=O)Cc2ccc(OC)cc2)c2cc(OCCCO)ccc2N1C(=O)c1ccc2ccccc2n1	Human papillomavirus type 1a E7 protein (residues 1-88)	0.649
COc1ccc(-c2cc3c(c(CCc4ccccc4)n2)[Si](C(C)C)(C(C)C)OC3)cn1	Human papillomavirus type 1a E7 protein (residues 1-88)	-0.765
CN(C)C(=O)C1N=C(c2ccc(OCCCO)cc2)N(c2ccccc2)O1 (configuration not stated)	Human papillomavirus type 1a E7 protein (residues 1-88)	1.13
C=CCN1Cc2ccccc2[C@H]2OC(c3ccc(OCCCO)cc3)=N[C@@]2(CC=C)C1=O	Human papillomavirus type 1a E7 protein (residues 1-88)	1.23
C=CC1c2cc(O)c(OC)cc2CCN1Cc1cc2c(cc1Br)OCO2 (configuration not stated)	Human papillomavirus type 1a E7 protein (residues 1-88)	-1.38
COc1ccc([Si](C)(C)[C@H]2[C@H](CC(=O)N(CCO)Cc3ccccc3)O[C@@]3(C(=O)N(Cc4cccc(N5CCOC5=O)c4)c4ccccc43)[C@@H]2C)cc1	Human papillomavirus type 1a E7 protein (residues 1-88)	0.922
[N-]=[N+]=NCc1ccccc1[C@@H]1OC(c2ccc(OCCCO)cc2)=N[C@]1(CCS(=O)(=O)c1ccccc1)C(=O)NCC(O)CO (some centres not stated)	Human papillomavirus type 1a E7 protein (residues 1-88)	1.28
O=C(NCC(F)(F)F)[C@@H]1c2ccccc2C(=O)N(Cc2ccc(OC(F)(F)F)cc2)[C@H]1c1ccc(CO)cc1	Human papillomavirus type 1a E7 protein (residues 1-88)	-0.0826
N#Cc1ccc(C(O)C2C=CC3C(=O)N(c4ccccc4)C(=O)C3N2Nc2ccccc2)cc1 (configuration not stated)	Human papillomavirus type 1a E7 protein (residues 1-88)	0.455
CCCC[C@@H]1C[C@H]1[C@@H](NC(=O)c1ccccc1)c1ccc(C(F)(F)F)cc1	Human papillomavirus type 1a E7 protein (residues 1-88)	-0.551
CCOC(=O)C[C@H]1[C@H](OC(=O)Cc2ccc3c(c2)OCO3)[C@@H](NC(=O)CC(C)C)c2cc(OCCCO)ccc2N1C(=O)Cc1ccc(OC)cc1	Human papillomavirus type 1a E7 protein (residues 1-88)	0.0383
Cc1cc(C)c(C(O)C2C=CC3C(=O)N(c4ccccc4)C(=O)C3N2Nc2ccc(C(C)C)cc2)c(C)c1 (configuration not stated)	Human papillomavirus type 1a E7 protein (residues 1-88)	1.26

---

The entries below are paired with their reported composite z-score.
# Test protocol: small-molecule microarray binders of probe aEGFR, primary screen, biochemical, biotinylated probe, 635/667 nm fluorescence (AID 1097);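 note: probe is a biotinylated anti-EGFR antibody binding compounds printed on slides; score combines fluorescence near 667 nm and signal to noise of each spot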
# Run parameters: higher = more signal
Parameter measured: composite z-score

Compound	Parameter measured	Measured result
COCCOC(=O)N1C(=O)[C@@]2(c3cc(C#Cc4ccc(OC)cc4)ccc31)[C@H](C(=O)Nc1nc3ccccc3s1)[C@H]1C(=O)O[C@H](c3ccccc3)[C@H](c3ccccc3)N1[C@@H]2c1ccc(OCCO)cc1	composite z-score	0.0311
O=C1O[C@H](c2ccccc2)[C@H](c2ccccc2)N2[C@H]1[C@@H](C(=O)Nc1nc3ccccc3s1)[C@]1(C(=O)Nc3ccccc31)[C@H]2c1ccc(OCCO)cc1	composite z-score	0.0162
COc1ccc([Si](C)(C)[C@H]2[C@H](CCO)O[C@@]3(C(=O)N(Cc4cccc(N5C(=O)COc6ccccc65)c4)c4ccccc43)[C@@H]2C)cc1	composite z-score	-0.148
CN1C(=O)C2C=CC(C(O)c3ccccn3)N(N(c3ccccc3)c3ccccc3)C2C1=O (centres undefined)	composite z-score	0.0353

---

# System: Inhibin beta A chain (activin A)
# Test protocol: INHBA (activin A) binders on microarrays, primary screen, biochemical, small-molecule microarray, 635 nm fluorescence scan (AID 1107);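 note: mouse activin A protein probed at 4.33 µg/mL on printed slides; score merges bound-protein fluorescence near 667 nm with spot signal-to-noise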
# Run parameters: small-molecule microarray binding, higher = more signal

Compound	composite z-score
OCCCC1=CC(c2ccc(CN3CCCC3)cc2)N(Cc2sc3ccccc3c2Cl)CC1 (stereo not drawn)	1.41
O=c1n(-c2ccccc2)c(=O)n2n1CC(COc1ccccc1)=C([C@H](O)CCc1ccccc1)[C@@H]2CO	1.03
CCCC[C@@H]1C[C@H]1[C@@H](NC(=O)c1cccs1)c1ccc(C(F)(F)F)cc1	1.09
O=C1O[C@H](c2ccccc2)[C@H](c2ccccc2)N2[C@H]1[C@@H](C(=O)Nc1nc3ccccc3s1)[C@]1(C(=O)Nc3ccc(C#CC4(O)CCCCCC4)cc31)[C@H]2c1ccccc1OCCO	-0.0311
O=C1C2C=CC(C(O)c3ccc(F)cc3)N(n3cnnc3)C2C(=O)N1Cc1ccccc1 (stereo not drawn)	1.12
O=C1OCC=C[C@H]2OC34C=CCN(c5ccc(Cl)cc5)C(=O)[C@H]3N(CCO)C(=O)[C@@H]4[C@@H]12 (stereo partly drawn)	-0.303
COC(=O)[C@H](Cc1ccccc1)N1CC(/C=C/C2CC2)=C[C@H]1[C@H](O)Cc1ccccc1	0.597
CC(=O)NCCCC[C@@H]1NC(=O)[C@@H]2C[C@H](C(=O)NCCCC[N+](C)(C)C)[C@H](c3ccc(O)cc3)N2C1=O	-0.261
O=C1O[C@@H](c2ccccc2)[C@@H](c2ccccc2)N2[C@@H](c3ccccc3OCCO)[C@]3(C(=O)Nc4ccc(C#CCCO)cc43)[C@@H](C(=O)N3CCCCCCC3)[C@H]12	2.05
CCC[C@@H]1C[C@@]1(CCC)[C@@H](NC(=O)OCc1ccccc1)c1ccc(-c2ccccc2)cc1	1.47
COC(=O)c1ccc([C@H](NC(=O)c2ccco2)[C@]2(C)C[C@H]2C2CCCCC2)cc1	0.447
COc1cc2c(cc1OC)CN(C(=O)[C@@H]1[C@H]3C(=O)O[C@H](c4ccccc4)[C@H](c4ccccc4)N3[C@H](c3ccc(OCCO)cc3)[C@@]13C(=O)Nc1ccc(C#CC4(O)CCCCCC4)cc13)CC2	0.282
Cc1cc(C)cc(N2C(=O)CSC2c2cccc([N+](=O)[O-])c2)c1 (stereo not drawn)	-0.639
COc1ccc(C#Cc2ccc3c(c2)[C@]2(C(=O)N3)[C@H](c3ccc(O)cc3)N3[C@H](c4ccccc4)[C@H](c4ccccc4)OC(=O)[C@H]3[C@@H]2C(=O)O)cc1	0.326
COCCOC(=O)N1C(=O)[C@@]2(c3cc(C#CC4=CCCCC4)ccc31)[C@H](C(N)=O)[C@H]1C(=O)O[C@H](c3ccccc3)[C@H](c3ccccc3)N1[C@@H]2c1ccccc1OCCO	0.455
C=C(COC)C(=O)CC[C@@H](OC(=O)c1cccnc1)c1ccc(OCCO)cc1	1.26
NCCCCCNC(=O)[C@@H]1C[C@@H]2C(=O)NCC(=O)N2[C@@H]1c1cccc(OCCO)c1	0.732
OCC1CC(c2ccccc2)=NO1 (stereo not drawn)	0.685
CCOC(=O)c1ccc(NC(=O)O[C@H]2[C@H](OC(=O)Nc3ccc4c(c3)OCO4)[C@H](OC(=O)Nc3ccc4c(c3)OCO4)[C@@H](OC)O[C@@H]2CO)cc1	0.673
O=C1OCC=C[C@H]2OC34C=CCN(Cc5ccccc5)C(=O)[C@H]3N(CCCCCCO)C(=O)[C@@H]4[C@@H]12 (stereo partly drawn)	0.652
O=C1O[C@@H](c2ccccc2)[C@@H](c2ccccc2)N2[C@@H](c3ccc(O)cc3)[C@]3(C(=O)Nc4ccc(C#CC5(O)CCCCCC5)cc43)[C@@H](C(=O)NC[C@H](O)c3ccccc3)[C@H]12	-0.357
CN1C(=O)C2C=CC(C(O)c3ccc(F)cc3)N(Nc3ccccc3)C2C1=O (stereo not drawn)	0.623
C=CCNC(=O)[C@@H]1[C@H]2C(=O)O[C@H](c3ccccc3)[C@H](c3ccccc3)N2[C@H](c2ccc(O)cc2)[C@@]12C(=O)N(C(=O)OCCOC)c1ccc(C#CC3(O)CCCCCC3)cc12	-1.46
NC(=O)NCC#Cc1ccc2c(c1)[C@]1(C(=O)N2)[C@H](C(=O)NC[C@H](O)c2ccccc2)[C@H]2C(=O)O[C@H](c3ccccc3)[C@H](c3ccccc3)N2[C@@H]1c1ccc(OCCO)cc1	1.04
COC(=O)c1c2oc(c1C(=O)OC)C(=O)N(C)Cc1cn(nn1)C[C@H](Cc1ccccc1)NC(=O)N[C@H](CO)CC2	-0.0248
CN1C(=O)C2C=CC(C(O)COCc3ccccc3)N(N(c3ccccc3)c3ccccc3)C2C1=O (stereo not drawn)	-0.101
COc1cc2c(cc1OC)CN(C(=O)[C@@H]1[C@H]3C(=O)O[C@H](c4ccccc4)[C@H](c4ccccc4)N3[C@H](c3ccc(OCCO)cc3)[C@@]13C(=O)Nc1ccccc13)CC2	0.508
C=C(CCCC)/C(=C/C[C@@H](OC(=O)c1ccncc1)c1ccccc1OCCO)c1cnc2ccccc2c1	1.69
